Sourced from paper PMC11684019

Test system: Vero cells
Details: read-out: CC50 Vero; MTT method, 72 h
Below, each of the compounds is paired with its reported CC50 value.

# item.smiles, qualifying.sign, CC50 / µM
data = [
    ("CCc1ccc(NCCCOc2cc(C)nc3ccc(Br)cc23)cc1", ">", 20),
    ("Cc1cc(OCCCNc2ccc(Cl)cc2)c2cc(Br)ccc2n1", "=", 19.8),
]

###

Tested on: HepG2 cells
Details: read-out: CC50 HepG2; Neutral Red method, 72 h
Listed here are compounds together with their documented CC50.
observable: CC50

# item.smiles, value.measured
data = [
    ("Cc1cc(OCCCNc2ccc(Cl)cc2)c2cc(Br)ccc2n1", "> 20 µM"),
    ("CCc1ccc(NCCCOc2cc(C)nc3ccc(Br)cc23)cc1", "> 20 µM"),
]

###

Parameter: MIC. Scope: all listed entries.
System: M. tuberculosis H37Rv strain
Assay: microbe, parasite or virus in culture
Type: cell-based, Mycobacterium tuberculosis
Settings: M. tuberculosis H37Rv, resazurin-based assay

# compound, MIC
measured = [
    ("CCc1cc(OCCCNc2ccc(Br)cc2)c2cc(Cl)ccc2n1 [8p]", "0.38 µM"),
    ("Cc1cc(OCCCNc2ccc(OC(F)(F)F)cc2)c2cc(Cl)ccc2n1 [8m]", "0.19 µM"),
    ("CCc1ccc(NCCCOc2cc(CC)nc3ccc(Cl)cc23)cc1 [8q]", "0.22 µM"),
    ("COc1ccc2nc(C)cc(OCCCNc3ccc(C(C)C)cc3)c2c1 [8j]", "0.11 µM"),
    ("COc1ccc2nc(C)cc(OCCCNc3ccc(C(F)(F)F)cc3)c2c1 [8f]", "3.20 µM"),
    ("CCc1cc(OCCCNc2ccc(Cl)cc2)c2cc(Br)ccc2n1 [8u]", "0.19 µM"),
]

###

Conditions: mice, 300 mg/kg gavage, noncompartmental analysis
observable: Cmax (µM)

# compound, observable, value.measured
data = [
    ("CCc1ccc(NCCCOc2cc(C)nc3ccc(Br)cc23)cc1 [8t]", "Cmax", 32.1),
]

###

Tested on: M. tuberculosis H37Rv strain
Assay: microbe, parasite or virus in culture
Format: cell-based, Mycobacterium tuberculosis
Conditions: M. tuberculosis H37Rv, resazurin-based assay

# item.smiles, unit.of.measurement, MIC
rows = [
    ("Cc1cc(OCCCNc2ccc(Br)cc2)c2cc(Br)ccc2n1", "µM", 0.35),
    ("COc1ccc2nc(C)cc(OCCCNc3ccccc3)c2c1", "µM", 0.25),
    ("CCc1ccc(NCCCOc2cc(C)nc3ccc(Br)cc23)cc1", "µM", 0.05),
    ("COc1ccc2nc(C)cc(OCCCNc3ccc(F)cc3)c2c1", "µM", 0.47),
    ("COc1ccc2nc(C)cc(OCCCNc3ccc(Cl)cc3)c2c1", "µM", 0.22),
    ("Cc1cc(OCCCNc2ccc(Cl)cc2)c2cc(Br)ccc2n1", "µM", 0.10),
    ("CCc1cc(OCCCNc2ccc(Cl)cc2)c2cc(Cl)ccc2n1", "µM", 0.11),
    ("COc1ccc2nc(C)cc(OCCCNc3ccc(C)cc3)c2c1", "µM", 0.24),
    ("Cc1cc(OCCCNc2ccc(Cl)cc2)c2cc(Cl)ccc2n1", "µM", 0.22),
    ("CCc1cc(OCCCNc2ccc(Br)cc2)c2cc(Br)ccc2n1", "µM", 0.34),
    ("COc1ccc2nc(C)cc(OCCCNc3ccc(OC(F)(F)F)cc3)c2c1", "µM", 0.20),
]

###

Assay: in vitro
Details: PAMPA, pH 7.4
observable: Papp at 5 h, 10 µM (×10⁻⁶ cm/s)

# molecule, value.measured
records = [
    ("C=CCc1ccccc1OCC(O)CNC(C)C (stereo not shown)", 4.1),
]

###

The following compounds are shown together with reported CC50 values.
Tested on: HepG2 cells
Conditions: read-out: CC50 HepG2; MTT method, 72 h

# compound, CC50
records = [
    ("CCc1ccc(NCCCOc2cc(C)nc3ccc(Br)cc23)cc1 [8t]", "> 20 µM"),
    ("Cc1cc(OCCCNc2ccc(Cl)cc2)c2cc(Br)ccc2n1 [8r]", "> 20 µM"),
]
